molecular target: pa-HemO (Pseudomonas aeruginosa); test: fluorescence quenching assay
pKd: −log10 of the molar value.
Measured pKd, listed per entry for reference.

Inquiry: Identify pKd associated with the compound O=C(O)CCN1C(=O)/C(=C\c2ccc(-c3cccc(O)c3)o2)SC1=S [compound 27]
Reply text: ~6.00

Inquiry: // fetch pKd given entry O=C(O)CCN1C(=O)/C(=C/c2cccc(Nc3ccccc3)c2)SC1=S [compound 21]
Reply text: ~6.00
